Could you please report measured Ki for the items listed next?
# Test System: adenosine, adrenergic, benzodiazepine, cholinergic, dopamine, GABAA, histamine H2, H3, H4, NMDA/PCP, opiate, and serotonin 5-HT1A, 5-HT1B, receptors
# Assay: Preliminary off-target binding studies
# Condition Info: read-out: Ki (off-target receptors), comparatively low (Ki > 0.5 μM) or very low (Ki > 1 μM) affinity, initial results, PDSP 2012

CN(C)[C@@H]1Cc2ccccc2[C@@H](c2ccc(Cl)cc2)C1 (stereo in doubt) [(−)-p-Cl-PAT] | > 500 nM

Q: Report Ki for CN(C)[C@H]1Cc2ccccc2[C@H](c2ccc(Cl)cc2)C1 (stereo in doubt) [(+)-p-Cl-PAT] please.
Result: > 500 nM

###

Ki, 5HT2B receptors (Homo sapiens, UniProt P41595): measured values

CN(C)[C@H]1Cc2ccccc2[C@H](c2ccc(Cl)cc2)C1 (stereo in doubt) [(+)-p-Cl-PAT] | 80 nM

Let's switch to this molecule now.
Q: Item CN(C)[C@@H]1Cc2ccccc2[C@@H](c2ccc(Cl)cc2)C1 (stereo in doubt) [(−)-p-Cl-PAT] with 5HT2B receptors (Homo sapiens, UniProt P41595) - Ki?
Result: 300 nM

###

# Test System: 5HT2C receptors (Homo sapiens, UniProt P28335)
# Sequence (P28335 33-458): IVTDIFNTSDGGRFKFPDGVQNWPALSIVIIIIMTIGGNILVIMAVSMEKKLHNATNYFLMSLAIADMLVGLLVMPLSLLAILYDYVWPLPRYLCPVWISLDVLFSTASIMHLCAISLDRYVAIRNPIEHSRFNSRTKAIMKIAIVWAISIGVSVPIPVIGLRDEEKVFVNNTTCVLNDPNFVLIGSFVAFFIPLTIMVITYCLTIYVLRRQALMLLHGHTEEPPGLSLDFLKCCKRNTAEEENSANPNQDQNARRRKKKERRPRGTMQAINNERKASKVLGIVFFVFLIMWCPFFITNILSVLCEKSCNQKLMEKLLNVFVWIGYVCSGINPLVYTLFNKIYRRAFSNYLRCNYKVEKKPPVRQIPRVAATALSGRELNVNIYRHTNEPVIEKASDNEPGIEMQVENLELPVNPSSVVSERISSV
# Assay: PLC activation and [3H]-IP formation in HEK cells
# Condition Info: read-out: 5HT2C EC50±SEM; [3H]-IP formation, 30 min incubation
Endpoint: EC50 (nM)
One number for each entry, in nM.

CN(C)[C@H]1Cc2ccccc2[C@H](c2ccc(Cl)cc2)C1 (stereo in doubt) [(+)-p-Cl-PAT] | 140

Let's switch to this molecule now.
Q: Item CN(C)[C@@H]1Cc2ccccc2[C@@H](c2ccc(Cl)cc2)C1 (stereo in doubt) [(−)-p-Cl-PAT] with 5HT2C receptors (Homo sapiens, UniProt P28335) - EC50?
Result: 1650

###

Could you please report measured pKi for the items listed next?
# Test System: 5HT2A receptors (Homo sapiens)
# Sequence (P28223 whole entry): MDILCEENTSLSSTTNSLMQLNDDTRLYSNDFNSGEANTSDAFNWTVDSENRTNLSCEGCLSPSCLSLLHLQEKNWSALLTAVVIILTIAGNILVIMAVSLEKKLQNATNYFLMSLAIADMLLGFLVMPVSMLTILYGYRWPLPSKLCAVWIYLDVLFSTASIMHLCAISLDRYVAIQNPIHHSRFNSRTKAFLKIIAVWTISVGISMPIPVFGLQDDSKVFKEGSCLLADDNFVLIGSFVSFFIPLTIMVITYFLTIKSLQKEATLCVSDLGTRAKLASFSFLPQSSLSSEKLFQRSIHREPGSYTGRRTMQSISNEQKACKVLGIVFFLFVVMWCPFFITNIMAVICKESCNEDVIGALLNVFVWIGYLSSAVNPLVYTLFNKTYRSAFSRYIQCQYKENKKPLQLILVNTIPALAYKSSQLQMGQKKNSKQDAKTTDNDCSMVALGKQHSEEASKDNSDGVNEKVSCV
Answers are plain numbers, as −log10 of the molar value.

CN(C)[C@H]1Cc2ccccc2[C@H](c2ccc(Cl)cc2)C1 (stereo in doubt) [(+)-p-Cl-PAT] | 7.38

Let's switch to this compound now.
Q: Report pKi for CN(C)[C@@H]1Cc2ccccc2[C@@H](c2ccc(Cl)cc2)C1 (stereo in doubt) [(−)-p-Cl-PAT] please.
Result: 6.62

Hey, just so you know, these numbers are from paper PMC3696402.
